src = PubChem BioAssay (NCI)

Tested on: HOP-62 NSCLC
Assay: NCI-60 one-dose screen, 48 h (100 = growth as untreated, 0 = no growth, -100 = all killed)
Conditions: 10 µM unless noted
Procedure: Growth inhibition of the HOP-62 human Non-Small Cell Lung tumor cell line is measured as a screen for anti-cancer activity. Cells are grown in 96 well plates and exposed to the test compound for 48 hours. Compounds are tested at a single concentration, which is 10^-5 M for most compounds. The reported endpoint is percent growth (GI% or GIPRCNT), where numbers from 0 - 100% represent growth inhibition, and numbers from -100% - 0 represent cell death. […]
The panel holds about 83,000 compounds, 20% with a hit somewhere; the sample as a whole holds those more often.
Consider the cut-off 90%. If the recorded growth is strictly smaller, the label is condition met; if not, the label is condition not met.

COc1cc2c(cc1OC)C1(C)N(CC2)C(=O)OC1(C)C (stereo not given) | condition not met
COc1cccc(-c2nc3sccn3c2-c2ccnc(NCCCNS(=O)(=O)c3ccccc3)n2)c1 | condition not met
CCCCC(N)(C(=O)O)C1CCCC1 (stereo not given) | condition not met
O=S(=O)(NCCCNc1cc(-c2cn(-c3ccccc3)nc2-c2cccc(O)c2)ccn1)c1ccc(Cl)cc1 | condition met
